system.name: Recombinant GMPPNP-loaded KRAS G12C (KRAS-G12C(ON)) / GST-RAF1 RBD (Homo sapiens, UniProt P01116, G12C)
Sequence (P01116 1-188 isoform P01116-2 G12C): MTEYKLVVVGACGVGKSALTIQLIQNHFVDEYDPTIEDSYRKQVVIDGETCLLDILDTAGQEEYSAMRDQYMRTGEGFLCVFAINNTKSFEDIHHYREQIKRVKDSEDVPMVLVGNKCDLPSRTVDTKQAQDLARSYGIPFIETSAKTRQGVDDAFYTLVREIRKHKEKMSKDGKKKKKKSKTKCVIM
assay.summary: KRAS G12C RAF Disruption Assay (HTRF)
measurement.conditions: GMPPNP-loaded KRAS G12C 5 nM, compound 20 min at room temperature, GST-RAF1 RBD 9 nM, HTRF signal; read-out: KRASG12C RAF Disruption Assay (IC50)
Experimental: Recombinant GST-RAF1 RBD (9 nM) was added, and the reaction mixture was incubated for 20 minutes. SA-Tb (0.25 nM) was added, and the reaction mixture was incubated for 3 hours. HTRF signal was measured (PerkinElmer Envision), the signal ratio (λem 520/λem 495) was calculated, and IC50 values were calculated from the dose-response curve.
Reported IC50 by item:
Reply with just the number (in µM).

Would you please look over these solved cases?
N#CC[C@H]1CN(c2nc(OC[C@@]34CCCN3C[C@H](F)C4)nc3c2CCN(c2cccc4cccc(Cl)c24)C3)CCN1C(=O)/C(F)=C/c1ccccn1 = 0.074
Cc1cccc(/C=C(\F)C(=O)N2CCN(c3nc(OC[C@@H]4CCCN4C)nc4c3CCN(c3cccc5cccc(Cl)c35)C4)C[C@@H]2CC#N)n1 = 0.144
CN1CCC[C@H]1COc1nc2c(c(N3CCN(C(=O)/C(F)=C/c4ncco4)[C@@H](CC#N)C3)n1)CCN(c1cccc3cccc(Cl)c13)C2 = 0.089

The record that follows has no IC50 shown yet.
Ask: May I ask what IC50 has been recorded for "CN1CCC[C@H]1COc1nc2c(c(N3CCN(C(=O)/C(F)=C/c4ncccn4)[C@@H](CC#N)C3)n1)CCN(c1cccc3cccc(Cl)c13)C2" ?
Result: 0.103
